Ref: patent US7863321B2

Test system: MDAH-Mca-4 tumours
Format: in vivo, C3H/HeN mice
Conditions: growth delay vs dose, linear regression, co-administered with DMXAA 80 μmol/kg
Method: Compounds: A stock solution of DMXAA, synthesised in the Auckland Cancer Society Research Centre, was prepared in phosphate-buffered saline, protected from light and stored frozen. Cisplatin (Sigma Chemical Co., St. Louis, Mo.) was dissolved in 0.9% saline. Stock solutions of carboplatin and 5-fluorouracil (Bristol Myers Squibb, Sermonita, Italy) and cyclophosphamide (Mead Johnson Oncology Products, Princeton, N.J.) were diluted with sterile water. […]
log10 Slope of dose/response values, listed per item
Scale: log10; quantity: Slope of dose/response; unit before log: days/µmol/kg

Examples with their reported log10 Slope of dose/response follow.
| compound | observed-property | quantitative-result |
| --- | --- | --- |
| CC[C@]1(O)C[C@H]2CN(CCc3c([nH]c4ccccc34)[C@@](C(=O)OC)(c3cc4c(cc3OC)N(C=O)[C@H]3[C@@](O)(C(=O)OC)[C@H](OC(C)=O)[C@]5(CC)C=CCN6CC[C@]43[C@@H]65)C2)C1 [Vincristine] | log10 Slope of dose/response | 1.15 |
| O=P1(N(CCCl)CCCl)NCCCO1 (stereo not drawn) [Cyclophosphamide, monohydrate] | log10 Slope of dose/response | -1.78 |
| COc1cc([C@@H]2c3cc4c(cc3[C@@H](O[C@@H]3O[C@@H]5CO[C@@H](C)O[C@H]5[C@H](O)[C@H]3O)[C@H]3COC(=O)[C@H]23)OCO4)cc(OC)c1O [Etoposide] | log10 Slope of dose/response | -0.85 |
| O=c1[nH]cc(F)c(=O)[nH]1 [5-fluorouracil, 5-fluoro-2,4(1H,3H)-pyrimidinedione] | log10 Slope of dose/response | -2.57 |
| N.N.[Cl][Pt][Cl] [Cisplatin] | log10 Slope of dose/response | -0.46 |

Next compound, please.
// compound N.N.O=C([O-])C1(C(=O)[O-])CCC1.[Pt+2] [Carboplatin] , assay MDAH-Mca-4 tumours, log10 Slope of dose/response value: -1.49

###

Test: in vivo
Details: female, C3H/HeN, mouse, in vivo, ip, MTD, chemotherapy drug co-administered with DMXAA 80 μmol/kg
observed-property: MTD (µmol/kg)
The reply should be a number in µmol/kg, with the unit left off.

The recorded MTD for `CC[C@]1(O)C[C@H]2CN(CCc3c([nH]c4ccccc34)[C@@](C(=O)OC)(c3cc4c(cc3OC)N(C=O)[C@H]3[C@@](O)(C(=O)OC)[C@H](OC(C)=O)[C@]5(CC)C=CCN6CC[C@]43[C@@H]65)C2)C1` is 1

###

Experiment: in vivo
Settings: chemotherapy drug alone, i.p.
Counter-ions that a name gives are not always drawn.
observed-property: % body weight change at 4 days (%)
The reply should be a number in %, with the unit left off.

| compound | % body weight change at 4 days, % |
| --- | --- |
| O=c1[nH]cc(F)c(=O)[nH]1 | −8.5 |

The recorded % body weight change at 4 days for COc1cc([C@@H]2c3cc4c(cc3[C@@H](O[C@@H]3O[C@@H]5CO[C@@H](C)O[C@H]5[C@H](O)[C@H]3O)[C@H]3COC(=O)[C@H]23)OCO4)cc(OC)c1O [Etoposide] is −2.0

The recorded % body weight change at 4 days for `N.N.O=C([O-])C1(C(=O)[O-])CCC1.[Pt+2]` is −5.6

The recorded % body weight change at 4 days for O=P1(N(CCCl)CCCl)NCCCO1 (stereo not shown) [Cyclophosphamide, monohydrate] is −0.8

The recorded % body weight change at 4 days for N.N.[Cl][Pt][Cl] [Cisplatin] is −9.5

The recorded % body weight change at 4 days for `CC[C@]1(O)C[C@H]2CN(CCc3c([nH]c4ccccc34)[C@@](C(=O)OC)(c3cc4c(cc3OC)N(C=O)[C@H]3[C@@](O)(C(=O)OC)[C@H](OC(C)=O)[C@]5(CC)C=CCN6CC[C@]43[C@@H]65)C2)C1` is −7.0

The recorded % body weight change at 4 days for COc1cccc2c1C(=O)c1c(O)c3c(c(O)c1C2=O)C[C@@](O)(C(=O)CO)C[C@@H]3O[C@H]1C[C@H](N)[C@H](O)[C@H](C)O1 [Doxorubicin, hydrochloride] is −3.9

###

Assay: in vivo
Conditions: female, C3H/HeN, mouse, plasma, ip, 80 μmol/kg
observed-property: Km (µM)
The reply should be a number in µM, with the unit left off.

The recorded Km for `Cc1ccc2c(=O)c3cccc(CC(=O)O)c3oc2c1C` is 220

###

Assay: in vivo
Conditions: chemotherapy drug co-administered with DMXAA 80 μmol/kg, i.p.
Counter-ions that a name gives are not always drawn.
observed-property: % body weight change at 4 days
Hi, when you answer, please include the unit after the number. Thanks!

Examples with their reported % body weight change at 4 days follow.
| molecule | % body weight change at 4 days |
| --- | --- |
| CC[C@]1(O)C[C@H]2CN(CCc3c([nH]c4ccccc34)[C@@](C(=O)OC)(c3cc4c(cc3OC)N(C=O)[C@H]3[C@@](O)(C(=O)OC)[C@H](OC(C)=O)[C@]5(CC)C=CCN6CC[C@]43[C@@H]65)C2)C1 | −10.0 ± 1.4% |
| O=P1(N(CCCl)CCCl)NCCCO1 (stereo not shown) [Cyclophosphamide, monohydrate] | −9.2 ± 1.4% |
| N.N.O=C([O-])C1(C(=O)[O-])CCC1.[Pt+2] | −8.5 ± 1.4% |

The recorded % body weight change at 4 days for N.N.[Cl][Pt][Cl] [Cisplatin] is −14.4 ± 2.3%

The recorded % body weight change at 4 days for COc1cc([C@@H]2c3cc4c(cc3[C@@H](O[C@@H]3O[C@@H]5CO[C@@H](C)O[C@H]5[C@H](O)[C@H]3O)[C@H]3COC(=O)[C@H]23)OCO4)cc(OC)c1O [Etoposide] is −6.5 ± 3.3%

The recorded % body weight change at 4 days for COc1cccc2c1C(=O)c1c(O)c3c(c(O)c1C2=O)C[C@@](O)(C(=O)CO)C[C@@H]3O[C@H]1C[C@H](N)[C@H](O)[C@H](C)O1 [Doxorubicin, hydrochloride] is −5.5 ± 1.2%

The recorded % body weight change at 4 days for `O=c1[nH]cc(F)c(=O)[nH]1` is −14.1 ± 1.5%
